B1: TPR t1 (parent)
chain: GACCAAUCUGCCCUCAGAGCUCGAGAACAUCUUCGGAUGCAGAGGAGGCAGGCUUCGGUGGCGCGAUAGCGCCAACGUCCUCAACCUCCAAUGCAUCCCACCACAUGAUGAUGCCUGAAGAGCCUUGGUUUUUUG

Variants of: B1
Measurement description: polymerase ribozyme fitness, log enrichment relative to wild type (log ratio); higher = more active; in vitro selection for triplet polymerase activity
Quantity name: polymerase ribozyme fitness (log ratio)

- Variant string: "G10C C11U C104A"
  Quantity name: "polymerase ribozyme fitness (log ratio)"
  Value measured: -0.93
- Variant string: "A27C G39A G61A C94A U112G"
  Quantity name: "polymerase ribozyme fitness (log ratio)"
  Value measured: -4.85
- Variant string: "G42U C53A A84C C86U A90U U131G U132C"
  Quantity name: "polymerase ribozyme fitness (log ratio)"
  Value measured: -1.34
- Variant string: "A2U C4A C56G U78C C79G C101U"
  Quantity name: "polymerase ribozyme fitness (log ratio)"
  Value measured: -3.31
- Variant string: "C8G C31A A50C G113U"
  Quantity name: "polymerase ribozyme fitness (log ratio)"
  Value measured: -5.53

Now let's try a different one.
Value of measured polymerase ribozyme fitness (log ratio) for the entry C4U A43U : -2.23
